test: Half life in Sprague-Dawley rat at 1 mg/kg,iv measured after 24 hrs by HPLC-MS/MS analysis; format: ADME, organism-based; conditions: in vivo
reported.endpoint: half-life (min)
Note: unit min is implicit; provide only the numeric part.

**Query** Find the measured half-life of CCCNS(=O)(=O)c1ccc2c(c1)CC(N(Cc1cc(Cl)ccc1OCCOC)C(=O)c1cc3ccccc3o1)C2 (racemic) and report it.
**Result** 90

----------
assay: Cytotoxicity against human HL7702 cells incubated for 48 hrs by resazurin reagent based assay; format: toxicity, cell-based; conditions: HL7702 (L02) cells
reported.endpoint: CC50 at 48 h

**Query** Provide only the value of recorded CC50 at 48 h for CCCNS(=O)(=O)c1ccc2c(c1)CC(N(Cc1cc(Cl)ccc1OCCOC)C(=O)c1cc3ccccc3o1)C2 (racemic)
**Result** > 1000 µM

----------
test: Clearance in Sprague-Dawley rat at 1 mg/kg,iv measured after 24 hrs by HPLC-MS/MS analysis; format: ADME, organism-based; conditions: in vivo
reported.endpoint: clearance (L/h/kg)
Write the number in L/h/kg without appending the unit.

**Query** Retrieve clearance measured for CCCNS(=O)(=O)c1ccc2c(c1)CC(N(Cc1cc(Cl)ccc1OCCOC)C(=O)c1cc3ccccc3o1)C2 (racemic) and print it.
**Result** 4.7

----------
experiment: Drug distribution in Sprague-Dawley rat colon at 1 mg/kg,iv measured for 0.5 hrs by HPLC-MS/MS analysis; assay type: ADME, organism-based; details: read-out: Ct
reported.endpoint: concentration at 0.5 h (ng/g)
Form entry: value (ng/g) — number only.

**Query** Consider the compound CCCNS(=O)(=O)c1ccc2c(c1)CC(N(Cc1cc(Cl)ccc1OCCOC)C(=O)c1cc3ccccc3o1)C2 (racemic) and give its recorded concentration at 0.5 h.
**Result** 35300

----------
biological target: NACHT, LRR and PYD domains-containing protein 3 (Homo sapiens, UniProt Q96P20)
Sequence (Q96P20 whole entry, the tested form may be a part): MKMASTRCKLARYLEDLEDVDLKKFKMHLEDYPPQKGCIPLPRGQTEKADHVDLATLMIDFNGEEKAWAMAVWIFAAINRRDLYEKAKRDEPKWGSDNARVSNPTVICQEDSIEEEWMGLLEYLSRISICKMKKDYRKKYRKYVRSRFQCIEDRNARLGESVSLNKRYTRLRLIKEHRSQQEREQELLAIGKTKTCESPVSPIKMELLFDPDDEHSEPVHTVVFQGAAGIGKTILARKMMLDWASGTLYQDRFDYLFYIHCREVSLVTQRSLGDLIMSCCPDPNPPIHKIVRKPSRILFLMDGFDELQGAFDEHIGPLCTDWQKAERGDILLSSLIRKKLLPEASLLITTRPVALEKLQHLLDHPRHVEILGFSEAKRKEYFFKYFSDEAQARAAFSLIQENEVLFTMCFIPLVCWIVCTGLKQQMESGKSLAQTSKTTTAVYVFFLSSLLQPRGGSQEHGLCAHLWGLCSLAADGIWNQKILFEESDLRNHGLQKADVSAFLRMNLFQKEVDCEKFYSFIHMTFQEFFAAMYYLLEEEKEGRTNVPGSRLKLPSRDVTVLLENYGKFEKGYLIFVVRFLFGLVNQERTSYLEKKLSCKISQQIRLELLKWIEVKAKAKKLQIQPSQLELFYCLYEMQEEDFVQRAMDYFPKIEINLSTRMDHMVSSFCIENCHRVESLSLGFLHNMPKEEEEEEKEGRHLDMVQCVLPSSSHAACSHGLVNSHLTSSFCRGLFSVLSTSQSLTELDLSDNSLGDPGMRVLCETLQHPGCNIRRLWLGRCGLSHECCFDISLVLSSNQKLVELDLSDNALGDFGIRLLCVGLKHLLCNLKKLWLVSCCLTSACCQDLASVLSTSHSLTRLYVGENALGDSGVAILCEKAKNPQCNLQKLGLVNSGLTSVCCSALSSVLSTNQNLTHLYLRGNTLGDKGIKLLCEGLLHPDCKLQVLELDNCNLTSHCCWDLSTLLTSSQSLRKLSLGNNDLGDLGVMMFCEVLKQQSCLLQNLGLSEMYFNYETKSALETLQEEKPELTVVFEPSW
reported.endpoint: pKd
pKd here: minus log base 10 of the concentration, concentration in moles per litre.

**Query** Write down pKd measured for item CCCNS(=O)(=O)c1ccc2c(c1)CC(N(Cc1cc(Cl)ccc1OCCOC)C(=O)c1cc3ccccc3o1)C2 (racemic)
**Result** 6.99

----------
assay: Cytotoxicity against mouse J774.A1 cells incubated for 24 hrs by resazurin reagent based assay; assay type: toxicity, cell-based
reported.endpoint: CC50 at 24 h

**Query** Specify measured CC50 at 24 h for CCCNS(=O)(=O)c1ccc2c(c1)CC(N(Cc1cc(Cl)ccc1OCCOC)C(=O)c1cc3ccccc3o1)C2 (racemic) .
**Result** > 30 µM

----------
assay: Acute toxicity in Kunming mouse model assessed as lethal dose at IG administration for 7 days; details: in vivo, po, time 7 day
reported.endpoint: LD50 at 168 h (mg/kg)
The reply should be a number in mg/kg, with the unit left off.

**Query** Indicate its recorded LD50 at 168 h; the compound in question is CCCNS(=O)(=O)c1ccc2c(c1)CC(N(Cc1cc(Cl)ccc1OCCOC)C(=O)c1cc3ccccc3o1)C2 (racemic)
**Result** 2000

----------
assay: Cmax in Sprague-Dawley rat at 1 mg/kg,iv measured after 24 hrs by HPLC-MS/MS analysis; type: ADME, organism-based; set-up: dose 1 mg/kg, time 24 hrs, route iv; details: in vivo
reported.endpoint: Cmax (ng/mL)
Just the number in ng/mL, nothing appended.

**Query** Answer with reported Cmax of CCCNS(=O)(=O)c1ccc2c(c1)CC(N(Cc1cc(Cl)ccc1OCCOC)C(=O)c1cc3ccccc3o1)C2 (racemic)
**Result** 219
